Recorded values, source ChEMBL document CHEMBL1142522.

Entries annotated with measured pIC50
# METHOD DESCRIPTION: Cytotoxicity against mouse C3H10T1/2 cells after 24 hrs by fluorometric microculture cytotoxicity assay
# Format: cell-based
# CONDITION INFO: C3H 10T1/2, 24 h
Scale explanation: pIC50 corresponds to minus log10 of a concentration expressed in moles per litre.

## Task Would you kindly share the measured pIC50 for `C=C(C)[C@@H]1CC[C@]2(C(=O)O)CC[C@]3(C)[C@H](CC[C@@H]4[C@@]5(C)[C@H](C=O)[C@@H](O)C(C)(C)[C@@H]5CC[C@]43C)[C@@H]12` ?
## Result 3.78

## Task What value of pIC50 has been reported for the following compound? `C=C(C)[C@@H]1CC[C@]2(C(=O)O)CC[C@]3(C)[C@H](CC[C@@H]4[C@@]5(C)C[C@@H](O)[C@H](O)C(C)(C)[C@@H]5CC[C@]43C)[C@@H]12`
## Result 3.84

## Task Need pIC50 of `C=C(C)[C@@H]1CC[C@]2(C(=O)O)CC[C@]3(C)[C@H](CC[C@@H]4[C@@]5(C)CC[C@H](O)C(C)(C)[C@@H]5CC[C@]43C)[C@@H]12` , thanks.
## Result 4.09
